# assayed_target: Muscarinic acetylcholine receptor M2 (Rattus norvegicus)
# Sequence (P10980 whole entry): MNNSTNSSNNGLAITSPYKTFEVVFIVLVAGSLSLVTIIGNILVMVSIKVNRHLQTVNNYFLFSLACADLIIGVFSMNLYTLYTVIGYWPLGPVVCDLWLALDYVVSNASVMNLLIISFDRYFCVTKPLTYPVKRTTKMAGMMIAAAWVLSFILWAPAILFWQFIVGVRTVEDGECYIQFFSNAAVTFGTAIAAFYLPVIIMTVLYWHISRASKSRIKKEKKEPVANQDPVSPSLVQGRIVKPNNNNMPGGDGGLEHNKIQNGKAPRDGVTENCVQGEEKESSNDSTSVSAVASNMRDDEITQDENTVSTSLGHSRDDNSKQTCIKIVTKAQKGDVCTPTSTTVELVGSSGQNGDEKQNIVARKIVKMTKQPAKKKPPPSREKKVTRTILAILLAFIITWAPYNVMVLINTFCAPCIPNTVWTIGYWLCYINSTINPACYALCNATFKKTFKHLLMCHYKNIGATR
# method: Agonist activity at rat muscarinic M2 expressed in CHO cells assessed as stimulation of calcium mobilization
pEC50: −log10 of the molar value.
measured_endpoint: pEC50

| smi | recorded_result |
| --- | --- |
| COc1ccc(CN2C(=O)C(=O)c3cc(OC(F)(F)F)ccc32)cc1 | < 4.52 |
| O=C1C(=O)N(Cc2ccc(Br)cc2)c2ccccc21 | < 4.52 |

###

# assayed_target: Muscarinic acetylcholine receptor M5 (Homo sapiens)
# method: Agonist activity at human muscarinic M5 expressed in CHO cells assessed as stimulation of calcium mobilization relative to acetyle choline
# Format: functional, cell-based
# Set-up: concentration or dose not given beside the values
Entries annotated with measured Activity

| smi | assayed_target | uom | Activity |
| --- | --- | --- | --- |
| Cn1cc(-c2ccc(CN3C(=O)C(=O)c4cc(OC(F)(F)F)ccc43)cc2)cn1 | Muscarinic acetylcholine receptor M5 (Homo sapiens) | % | 85 |
| O=C1C(=O)N(Cc2ccc(-c3ccc(F)nc3)cc2)c2ccc(OC(F)(F)F)cc21 | Muscarinic acetylcholine receptor M5 (Homo sapiens) | % | 80 |
| O=C1C(=O)N(Cc2ccc(-c3ccc(Cl)nc3)cc2)c2ccc(OC(F)(F)F)cc21 | Muscarinic acetylcholine receptor M5 (Homo sapiens) | % | 85 |
| O=C1C(=O)N(Cc2ccc(-c3ccccc3)cc2)c2ccc(OC(F)(F)F)cc21 | Muscarinic acetylcholine receptor M5 (Homo sapiens) | % | 85 |
| COc1ccccc1-c1ccc(CN2C(=O)C(=O)c3cc(OC(F)(F)F)ccc32)cc1 | Muscarinic acetylcholine receptor M5 (Homo sapiens) | % | 70 |
| O=C1C(=O)N(Cc2ccc(-c3ccsc3)cc2)c2ccc(OC(F)(F)F)cc21 | Muscarinic acetylcholine receptor M5 (Homo sapiens) | % | 85 |
| O=C1C(=O)N(Cc2ccc(Oc3ccccc3)cc2)c2ccc(OC(F)(F)F)cc21 | Muscarinic acetylcholine receptor M5 (Homo sapiens) | % | 75 |

###

Entries annotated with measured Kp
# method: Ratio of AUC in rat brain to AUC in rat plasma
# Assay type: ADME, tissue-based
# experimental_context: read-out: Ratio AUC

| smi | Kp |
| --- | --- |
| O=C1C(=O)N(Cc2ccc(-c3ccccc3)cc2)c2ccc(OC(F)(F)F)cc21 | 0.25 |
| O=C1C(=O)N(Cc2ccc(-c3ccsc3)cc2)c2ccc(OC(F)(F)F)cc21 | 0.25 |
| Cn1cc(-c2ccc(CN3C(=O)C(=O)c4cc(OC(F)(F)F)ccc43)cc2)cn1 | 0.25 |
| COc1ccc(CN2C(=O)C(=O)c3cc(OC(F)(F)F)ccc32)cc1 | 0.25 |
| O=C1C(=O)N(Cc2ccc(-c3ccc(Cl)nc3)cc2)c2ccc(OC(F)(F)F)cc21 | 0.25 |
| O=C1C(=O)N(Cc2ccc(Br)cc2)c2ccccc21 | 0.25 |
| COc1ccccc1-c1ccc(CN2C(=O)C(=O)c3cc(OC(F)(F)F)ccc32)cc1 | 0.25 |
| O=C1C(=O)N(Cc2ccc(C(F)(F)F)cc2)c2c(Cl)cccc21 | 0.25 |
| O=C1C(=O)N(Cc2ccc(-c3ccc(F)nc3)cc2)c2ccc(OC(F)(F)F)cc21 | 0.25 |
